- Test system: TK-10 renal
- test_method_notes: NCI tumour cell line growth inhibition, 48 h
GI50 values for the compounds below.

Query string: Given the compound `CN(C)C[C@@H]1CCn2cc(c3ccccc32)C2=C(C(=O)NC2=O)c2cn(c3ccccc23)CCO1` , what is its reported GI50?
Result string: 2.22 µM

---

TGI values for the compounds below.
- Test system: HCT-116 colon
- test_method_notes: NCI tumour cell line growth inhibition, 48 h

* COc1cc(C2SCC(=O)N2c2ccc(Cl)cc2)cc(OC)c1OC (centres undefined) | > 100 µM
* C#Cc1cccc(Nc2ncnc3ccc(-c4cnc(N)nc4)cc23)c1 | 17.3 µM
* CC(=O)Oc1ccc(C)c2c1[C@H]1CC[C@]3(C)[C@@H](OC(C)=O)CC[C@H]3[C@@H]1CC2 | 31.2 µM

We next turn to a different compound, shown below.
Query string: Given the compound CCCCCCC(O)C(=O)OC1C2C(CC1(C)C)C(O)C13OC1C(O)C1(CO1)[C@@]23C (some centres undefined) , what is its reported TGI?
Result string: > 100 µM

---

- System: DU-145 prostate
- test_method_notes: NCI tumour cell line growth inhibition, 48 h; in the data active = GI50 below about 0.43 µM; inactive = the rest
# valid calls are TRUE = active, FALSE = inactive; nothing else

Solved cases (5 shown):
* O=c1oc2ccc(I)cc2c(=O)n1-c1ccc(I)cc1F | FALSE
* O=C(O)CC(S)C(=O)O.[Li+].[Sb] (stereo unspecified) | FALSE
* Fc1ccc(-c2c(-c3ccncc3)[nH]c3cccnc23)cc1 | FALSE
* Cc1ccc2c(c1)C(=O)/C(=C/c1cccc(OCC(=O)c3ccc(Cl)cc3)c1)CS2 | FALSE
* COc1cc2c(cc1OC)-c1c(c3ccc([N+](=O)[O-])cc3c(=O)n1CCCN=[N+]=[N-])C2=O | FALSE

Query string: What did this assay record as the result for `CCCCCCCCCCCCSC1=CC(=O)C=CC1=O` ?
Result string: FALSE

Query string: Same lookup for `CN(CO)c1nc(N(C)CO)nc(N(C)CO)n1` , please.
Result string: FALSE

Query string: Same lookup for `Cc1c(C(=O)/C=C/c2ccc(Cl)cc2)nnn1-c1ccnc2c(C(F)(F)F)cccc12` , please.
Result string: FALSE

Query string: Same lookup for N#Cc1ccc(O)c(C2=NCC(c3ccc(-c4ccccc4)cc3)O2)c1 (stereo unspecified) , please.
Result string: FALSE

Query string: Same lookup for `CCc1c2c(nc3ccc(OC(=O)OCc4ccc(B5OC(C)(C)C(C)(C)O5)cc4)cc13)-c1cc3c(c(=O)n1C2)COC(=O)[C@]3(O)CC` , please.
Result string: TRUE

---

- Test system: SNB-78 CNS
- test_method_notes: NCI tumour cell line growth inhibition, 48 h
TGI values for the molecules below.
All answers are understood in µM, so give the number only.

Example cases with answers are listed next.
- CCC/C=C/C=C\C(=O)O[C@@H]1[C@@H](C)[C@]2(O)[C@@H]3C=C(C)C(=O)[C@H]3CC(COC(C)=O)=C[C@H]2[C@@H]2C(C)(C)[C@]12OC(C)=O: 152
- CN(CO)c1nc(N(C)CO)nc(N(C)CO)n1: 25.3

We next turn to a different molecule, shown below.
Query string: Given the molecule `Nc1nc(N)c(CCCCc2ccccc2)c(/C=C/c2ccc([N+](=O)[O-])cc2)n1` , what is its reported TGI?
Result string: 12.8

---

- Tested on: COLO 205 colon
- test_method_notes: NCI tumour cell line growth inhibition, 48 h
TGI values for the molecules below.

Example cases with answers are listed next.
• CCn1c(=O)c2c3ccc(O)cc3[nH]c2c2ccc(O)cc21 = > 100 µM
• CN(CCc1ccccn1)/[N+]([O-])=N/O (tested in a mixture with another compound) = > 100 µM
• CC(=O)O[C@H]1C(=O)[C@@]2(C)[C@H]([C@H](OC(=O)c3ccccc3)[C@]3(O)C[C@H](OC(=O)[C@H](O)[C@@H](NC(=O)OC(C)(C)C)c4ccco4)C(C)=C1C3(C)C)[C@]1(OC(C)=O)CO[C@@H]1C[C@@H]2O = < 0.005 µM
• COC(=O)/C=C(C)/C=C/c1c(C)c(C(C)=O)c(C)n1C = > 100 µM

We next turn to a different molecule, shown below.
Query string: Given the molecule `COc1cc2c(cc1OC)-c1c(c3ccc([N+](=O)[O-])cc3c(=O)n1CCCN=[N+]=[N-])C2=O` , what is its reported TGI?
Result string: > 100 µM

---

- System: NCI-H460 lung
- test_method_notes: NCI tumour cell line growth inhibition, 48 h
assay_endpoint: TGI (µM)
All answers are understood in µM, so give the number only.

* CCCCNP1(NCCCC)=NP(NCCCC)(NCCCC)=NP(NCCCC)(NCCCC)=NP(NCCCC)(NCCCC)=N1 | 4.25

Query string: Given the molecule `CCCCCCCCCCCCCC(=O)NO` , what is its reported TGI?
Result string: 38.3

Query string: Same lookup for `CC(=O)c1ccc(Nc2nc3ccccc3c3occc23)cc1` , please.
Result string: 23

Query string: Same lookup for `O=C1C(c2ccccc2)=[N+]([O-])c2cc([N+](=O)[O-])ccc21` , please.
Result string: 56.8

Query string: Same lookup for `C#Cc1cccc(Nc2ncnc3ccc(-c4cnc(N)nc4)cc23)c1` , please.
Result string: 14

---

GI50 values for the molecules below.
- Tested on: UACC-62 melanoma
- test_method_notes: NCI tumour cell line growth inhibition, 48 h

* C=C1C(=O)O[C@H]2[C@H]1CC/C(CNC(=O)C(C)c1ccc(CC(C)C)cc1)=C\CC[C@@]1(C)O[C@@H]21 (stereo not given in full) | 1.67 µM

Query string: Given the molecule `CN(C)c1ccc2cc3c(cc2c1)Oc1ccccc1N3.[Cl][Zn][Cl]` , what is its reported GI50?
Result string: 3.43 µM

Query string: Same lookup for `Cc1c(C(=O)/C=C/c2ccc(Cl)cc2)nnn1-c1ccnc2c(C(F)(F)F)cccc12` , please.
Result string: 26.5 µM

Query string: Same lookup for `Cn1c2ccccc2c2c(=O)n(CCCC(=O)NCCc3cnc[nH]3)c3c(-c4ccccc4)nnn3c21` , please.
Result string: 9.87 µM

---

- Test system: KM12 colon
- test_method_notes: NCI tumour cell line growth inhibition, 48 h
GI50 values for the molecules below.

Example cases with answers are listed next.
- O=C(CS(=O)c1nc2ccccc2nc1-c1ccccc1)Nc1ccc(Cl)cc1 (stereo not drawn): 21.7 µM
- CC1OC(OC2C(O)C(OCCc3ccc(O)c(O)c3)OC(CO)C2OC(=O)/C=C/c2ccc(O)c(O)c2)C(O)C(O)C1O (stereo not drawn): > 100 µM

We next turn to a different molecule, shown below.
Query string: Given the molecule `COc1ccc2[nH]cc(Cc3c[nH]c4ccc(OC)cc34)c2c1` , what is its reported GI50?
Result string: 19 µM

---

- Tested on: HOP-92 NSCLC
- test_method_notes: NCI tumour cell line growth inhibition, 48 h
assay_endpoint: GI50

Example cases with answers are listed next.
- CCCn1cc(/C=N\N=C2\C(=O)Nc3ccc(C)cc32)c2ccccc21: 1870 nM
- O=C(O)CC(S)C(=O)O.[Li+].[Sb] (stereo unspecified): > 100000 nM
- O=C(N/N=C/c1cc(Cl)cc(Cl)c1[O-])c1ccccc1O.O=C(N/N=C/c1cc(Cl)cc(Cl)c1[O-])c1ccccc1O.[Cu+2]: 224 nM
- CC[C@@]1(O)C(=O)OCc2c1cc1n(c2=O)Cc2cc3cccc(N)c3nc2-1: > 100000 nM
- NCCNc1ccc(NCCN)c2c1C(=O)c1c(O)ccc(O)c1C2=O: 229 nM

Query string: Given the compound CC1OC(OC2C(O)C(OCCc3ccc(O)c(O)c3)OC(CO)C2OC(=O)/C=C/c2ccc(O)c(O)c2)C(O)C(O)C1O (stereo unspecified) , what is its reported GI50?
Result string: > 100000 nM

---

- System: NCI-H460 lung
# valid calls are yes (1) for active, no (0) for inactive; nothing else

Solved cases (3 shown):
* Cc1cc2oc(=O)cc(OC/C=C3/CCC(=O)O3)c2cc1C | no (0)
* NS(=O)(=O)c1ccc(-n2nc(-c3ccccc3)cc2-c2cc(O)ccc2O)cc1 | no (0)
* CN(C)C[C@@H]1CCn2cc(c3ccccc32)C2=C(C(=O)NC2=O)c2cn(c3ccccc23)CCO1 | no (0)

Query string: What did this assay record as the result for `Cc1nccc2c3ccc(OCc4cn(-c5ccc(Br)cc5)nn4)cc3n(CCCc3ccccc3)c12` ?
Result string: no (0)

Query string: Same lookup for O=C(O)CC(S)C(=O)O.[Li+].[Sb] (stereo not drawn) , please.
Result string: no (0)

Query string: Same lookup for `O=C1/C=C/[C@@H](O)[C@@H]2C[C@@H](O)C[C@H]2/C=C/CCC[C@H](CCc2ccc(NC(=S)Nc3ccc4c(c3)C(=O)OC43c4ccc(O)cc4Oc4cc(O)ccc43)cc2)O1` , please.
Result string: no (0)

Query string: Same lookup for `O=C(Nc1cccc(-n2ccc3c(NC(=O)c4ccccc4)nccc32)c1)c1ccc(Cl)c(Cl)c1` , please.
Result string: yes (1)

Query string: Same lookup for O=C1NC(c2cccc3ccccc23)Nc2ccccc21 (stereo not drawn) , please.
Result string: yes (1)
